Test system: DIPGX9 (diffuse intrinsic pontine glioma line)
Assay: growth inhibition (% activity, log2 RLU normalised to DMSO / staurosporine); higher = more growth inhibition
Conditions: 33 µM
ENDPOINT_LABEL: growth inhibition (%)

COc1ccccc1OCC(O)COC(N)=O (stereo not given) : 0.273
CC(=O)Nc1ccccc1 : -2.39
COc1ccc(/C=C/C(=O)Nc2ccccc2C(=O)O)cc1OC : -0.609
CC1CCc2c(N3CCC(O)CC3)c(F)cc3c(=O)c(C(=O)O)cn1c23 (stereo not given) : 2.53
CC(C)c1nc(CN(C)C(=O)N[C@H](C(=O)N[C@@H](Cc2ccccc2)C[C@H](O)[C@H](Cc2ccccc2)NC(=O)OCc2cncs2)C(C)C)cs1 : 1.93
CCC(=O)O[C@@H](O[P@](=O)(CCCCc1ccccc1)CC(=O)N1C[C@H](C2CCCCC2)C[C@H]1C(=O)O)C(C)C : 1.15
CCOC(=O)[C@H](CCc1ccccc1)N[C@@H](C)C(=O)N1C(=O)N(C)C[C@H]1C(=O)O : -0.304
CCCSc1ccc2[nH]c(NC(=O)OC)nc2c1 : 11.9
Oc1ccc(OCc2ccccc2)cc1 : 2.61
C/C(O)=C(\C#N)C(=O)Nc1ccc(C(F)(F)F)cc1 : 5.83
C[C@]12CCC3=C4CCC(=O)C=C4CC[C@H]3[C@@H]1CC[C@@]2(O)CC#N : 0.24
[O-]n1ccccc1=S.[O-]n1ccccc1=S.[Zn+2] : 56.4
CC(C)CC(N)=O : -0.164
Cc1cnc(C(=O)NCCc2ccc(S(=O)(=O)NC(=O)NC3CCCCC3)cc2)cn1 : 0.701
N#C[C@@H]1CCCN1C(=O)CNC12CC3CC(CC(O)(C3)C1)C2 : -1
COc1cc(NS(=O)(=O)c2ccc(N)cc2)nc(OC)n1 : 1.55
CCCCc1oc2ccc(NS(C)(=O)=O)cc2c1C(=O)c1ccc(OCCCN(CCCC)CCCC)cc1 : 57.4
CCCNC(=O)NS(=O)(=O)c1ccc(Cl)cc1 : 6.15
C=CC(=O)N1CCC[C@@H](n2nc(-c3ccc(Oc4ccccc4)cc3)c3c(N)ncnc32)C1 : 7.17
Clc1ccc2c(c1)CCc1cccnc1C2=C1CCNCC1 : -0.408
